Parameter (H) G/D (fold bias): see the listing below.
Tested on: hLTBP1-/hLTBP3-proTGFβ1 vs hGARP-/hLRRC33-proTGFβ1 complexes
Test: Solution equilibrium titration: relative affinity (bias) LTBP complexes vs cell-associated complexes
Type: binding, human
Conditions: MSD-SET, ratio of average KD cell-associated / matrix-associated
Please reply with the bare figure in fold and do not write the unit itself.

Examples with their reported (H) G/D (fold bias) follow.
Ab20: monoclonal antibody; VH SEQ ID NO: 251, VL SEQ ID NO: 241 (antibody, V domains shown) VH: EVQLLESGGGLVQPGGSLRLSCAASGFTFSAYAMTWVRQAPGKGLEWVSAISGSGGVTYYADSVKGRFTISRDNSKNTLYLQMNSLRAEDTAVYYCARVSSGHWDYDYWGQGTLVTVSS VL: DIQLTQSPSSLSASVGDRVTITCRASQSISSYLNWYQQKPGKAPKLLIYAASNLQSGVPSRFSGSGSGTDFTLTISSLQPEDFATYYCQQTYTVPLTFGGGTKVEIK	6.75
Ab24: monoclonal antibody; VH SEQ ID NO: 132, VL SEQ ID NO: 15 (antibody, V domains shown) VH: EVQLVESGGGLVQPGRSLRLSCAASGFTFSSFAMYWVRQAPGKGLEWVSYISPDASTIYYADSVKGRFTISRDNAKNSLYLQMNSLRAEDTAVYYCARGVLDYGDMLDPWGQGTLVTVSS VL: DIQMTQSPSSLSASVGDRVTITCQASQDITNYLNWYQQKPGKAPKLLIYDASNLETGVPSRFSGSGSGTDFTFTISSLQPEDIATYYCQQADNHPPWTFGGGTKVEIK	4.35

IN: Which (H) G/D (fold bias) value belongs to Ab22: monoclonal antibody; VH SEQ ID NO: 130, VL SEQ ID NO: 15 (antibody, V domains shown) VH: EVQLVESGGGLVQPGGSLRLSCAASGFTFGSFSMNWVRQAPGKGLEWVSYIHSDASTIYYADSVKGRFTISRDNAKNSLYLQMNSLRAEDTAVYYCARGVLDYGDMLDPWGQGTLVTVSS VL: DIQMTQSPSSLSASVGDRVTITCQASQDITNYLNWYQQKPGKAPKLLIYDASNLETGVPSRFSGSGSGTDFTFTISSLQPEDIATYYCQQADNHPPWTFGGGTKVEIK ?
OUT: 2.71
